Target: TgENR (Toxoplasma gondii)
Sequence (Q6UCJ9 28-417): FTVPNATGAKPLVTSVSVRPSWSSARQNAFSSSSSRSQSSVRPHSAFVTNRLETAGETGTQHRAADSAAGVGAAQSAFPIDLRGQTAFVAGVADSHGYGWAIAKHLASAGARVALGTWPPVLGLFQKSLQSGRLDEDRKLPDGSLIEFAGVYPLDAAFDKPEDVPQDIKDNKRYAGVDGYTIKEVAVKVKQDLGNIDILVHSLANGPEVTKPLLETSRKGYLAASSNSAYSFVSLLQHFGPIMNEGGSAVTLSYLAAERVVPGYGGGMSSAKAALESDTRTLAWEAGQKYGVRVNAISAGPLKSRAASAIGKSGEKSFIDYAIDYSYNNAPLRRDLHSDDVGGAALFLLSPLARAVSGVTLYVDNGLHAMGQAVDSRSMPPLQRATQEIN
Experiment: TgENR inhibitor assay
RECORDED_METRIC: IC50

INSERT INTO assay_data (smiles_repr, recorded_metric, experimental_result) VALUES
  ('Oc1cc(Cl)ccc1Oc1ccc(-c2ccccc2)cc1', 'IC50', '> 2 µM');

Below: the item to evaluate.
Ask: Recorded IC50 of "O=[N+]([O-])c1ccc(Oc2ccc(Cl)cc2O)c(Cl)c1" , please.
Reply: 0.045 µM
